- System: MS2 coat protein
- ASSAY INFO: apparent KD of MS2 coat protein; designed switch direction (-1 OFF switch, 1 ON switch): -1; higher = weaker reporter binding
- PARTICULARS: Eterna round: R95; input ligand: none
// label = T if apparent KD of MS2 coat protein is not less than 0.02 µM, otherwise F

MONOMER SEQUENCE	ASSIGNED LABEL
GAGAAGGUAGGAUAUACGAAGAAAGAGGGUAGUAAUAAUACACAUGAGGAUCACCCAUGUAGAAGGACCAAGAG [Mat - Exclusion 2 - Mod of my Tesla design - D45] (puzzle: Exclusion 2)	T
GAAAAGAUAGGAUAUACAAGAAGAAAAGAAAAGAAAAGAAAACAUGAGGAUCACCCAUGUAGAAGGAUCAAAAG [Default title] (puzzle: Exclusion 2)	F
CCGAAUAAGCAGGAUAUCGUUUCGGAAACGAAACGAGAAGGGCUAACAUGAGGAUCACCCAUGUUCCUUAACGG [Mat - Exclusion 6 - Eli Mod - D77] (puzzle: Exclusion 6)	F
GAUUAUGCGAGCUUUAGGGACAUGAGGAUCACCCAUGUUCGUCUUAUUAGUCUAGGUACGCUAACAUACCUAAAUCU [JMF 40] (puzzle: Sensor v3, turn-off variant 1)	T
AGAAGUAGUAGCCGAUCCUACAUGAGGAUCACCCAUGUAGCUAGACGUGCACGCGAUGCUCGUCAGACUACCAGAUG [salish99_TOv1_r3_031] (puzzle: Sensor v3, turn-off variant 1)	T

* * *

- Tested on: MS2 coat protein
- ASSAY INFO: apparent KD of MS2 coat protein; designed switch direction (-1 OFF switch, 1 ON switch): 1; higher = weaker reporter binding
- PARTICULARS: Eterna round: R95; input ligand: microRNA oligo, concentration not stated
Category scheme (apparent KD of MS2 coat protein): low value (below 30 nM), medium value (30 nM to below 90 nM), high value (90 nM or more)

MONOMER SEQUENCE	ASSIGNED LABEL
AGCUAUCGCGUACGAUAGCUGAAGCGUGUACAUGAGGAUCACCCAUGUCAUGUGCAAGCUUUUUGCUCGUCUUAUUG [JL-shm-2.29 JL mod] (puzzle: Sensor for hsa-mir-208a)	low value
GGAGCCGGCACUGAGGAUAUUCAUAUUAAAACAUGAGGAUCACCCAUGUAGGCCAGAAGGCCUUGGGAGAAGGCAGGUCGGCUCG [salish99_ss2_r3_075] (puzzle: Same State 2)	high value
AUAAAACAUGAGGAUCACCCAUGUCAACAAAGUCGAGGAUAUGGGCAAAUAAAAUAAGAACCAGAAGGUGAAUAAU [salish99_ss1_r3_032] (puzzle: Same State 1)	medium value
CGUCCAGCCUGAGCUGGACAAAAGCAUGUACAUGAGGAUCACCCAUGUUCAUGUACAAGCUUUUUGCUCGUCUUACU [salish99_208a_r3_092x] (puzzle: Sensor for hsa-mir-208a)	low value
UAAAUACAUGAGGAUCACCCAUGUCAAAAGACAUGAGGAUAUGUACAGUCUUCGGUCUGUACAGAAGGCAUGAAUA [salish99_ss1_r3_097] (puzzle: Same State 1)	high value
UUAAGCCACGAGCAGGAUAUGUAUUAAAAUACAUGAGGAUCACCCAUGUGCAGGUGUAACACCUGACAGAAGGGCCAAUCGCGGC [Soondi - 1] (puzzle: Same State 2)	high value
AUAAAACAUGAGGAUCACCCAUGUCAACAAAUUCGAGGAUAUGGGCAAAUAAAAUAAGAACCAGAAGGCGAAUAAU [salish99_ss1_r3_038] (puzzle: Same State 1)	high value
GCCGCACAUGAGGAUCACCCAUGUAAUUACAUGGGAGGAUAUCAGUGCUCGAAAGAGCACUGAGAAGGCCUGAGGC [SS1 - Omei A v1] (puzzle: Same State 1)	medium value
GUACUACAUGAGGAUCACCCAUGUACAAAUGUACGAGGAUAUGCAUGGACGAAAGUUGGUGCAGAAGGCGUAGUAC [Pin2Pin #4] (puzzle: Same State 1)	low value
AGUCCAGCCAGAGCUGGACAAAAGCAUGUACAUGAGGAUCACCCAUGUUCAUGUACAAGCUUUUUGCAAGUCAAAAU [Mat - hsa-mir-208a - Mod of JL - 83] (puzzle: Sensor for hsa-mir-208a)	low value
GUAAUACAUGAGGAUCACCCAUGUCAAUGUAGUCGAGGAUAUGGGUAGCUAUGAGGCGUACUAGAAGGCGAGGAGU [JL-ss1-3.18 ViennaUCT mod] (puzzle: Same State 1)	medium value
GUGCUACAUGAGGAUCACCCAUGUACAAAUGUACGAGGAUAUGCAUGGGCUAAUGCUGGUGCAGAAGGCGUAGCGC [Pin2Pin #7] (puzzle: Same State 1)	medium value
UCAAGCGCACAUGAGGAUCACCCAUGUACCGAGAGUCGUCGUCGGAGAAUGAUGCAUGCUGCUGCUAUUCCACAUUA [Default title] (puzzle: Sensor for hsa-mir-208a version 2)	medium value
GUUAAACAUGAGGAUCACCCAUGUAAUAUAAUGGGAGGAUAUCUGAAUUAAUUAAAUUAAGGAGAAGGCCUAAUGG [Mat - Same State 1 - Mod of Eli - D51] (puzzle: Same State 1)	high value
AACAAUCUAUCUGAGGAUAUCAUGAAUUAAACAUGAGGAUCACCCAUGUGCAGGAAAACUGCAUAUGAGAAGGCAGAUAGAUUGA [salish99_ss2_r3_032] (puzzle: Same State 2)	high value
UAGAAACAUGAGGAUCACCCAUGUGGGUUAAACACAGGAUAUCACACCAAACGAAAGGCGUGAGAAGGGUGACCGU [Xeonreais] (puzzle: Same State 1)	medium value
UGCAUACAUGAGGAUCACCCAUGUCAACUUAGUCGAGGAUAUGGGCAGCCCUGAGGCGAACCAGAAGGCGAAUUGU [JL-ss1-3.01 ViennaUCT mod] (puzzle: Same State 1)	high value
AGUCCAGCCUGAGCUGGACAAAAGCAUGUACAUGAGGAUCACCCAUGUUCAUGUACAAGCUUUUUGCUCGUCUUGCU [salish99_208a_r3_105x] (puzzle: Sensor for hsa-mir-208a)	low value
UUUAUACAUGAGGAUCACCCAUGUCAACGUAGUCGAGGAUAUGGGCAGCCGUGAGGCGUACUAGAAGGCGAAGAGG [JL-ss1-3.08 ViennaUCT mod] (puzzle: Same State 1)	medium value
AGUCCAGCCUGAGCUGGACAAGAGCAUGUACAUGAGGAUCACCCAUGUCAUGUACAAGCUUUUUGCUCGUCUUAAUA [Zipper 49 - 2] (puzzle: Sensor for hsa-mir-208a)	low value

* * *

- Test system: MS2 coat protein
- ASSAY INFO: apparent KD of MS2 coat protein; designed switch direction (-1 OFF switch, 1 ON switch): -1; higher = weaker reporter binding
- PARTICULARS: input ligand: microRNA oligo, concentration not stated
READOUT KIND: apparent KD of MS2 coat protein (µM)

MONOMER SEQUENCE	REPORTED
UAUAUAUAGUAAGGAUAUGUAAUUAUUCUAUAAACAGAAGGUACUGACAUGAGGAUCACCCAUGUUUUAGUGUGGGCAUGUAGA [JMF's solution 40] (Eterna round: R96, puzzle: Exclusion NG 1)	0.0338
UACCUGAGGCUUUGCUUUAGGCUUACAUGAGGAUCACCCAUGUAGGAUAUGGUAGGCUUUGCUUACCAGAAGGACAUGGAAAUU [Mat - Exclusion NG 3 - Mod of JL - D20] (Eterna round: R96, puzzle: Exclusion NG 3)	0.063
UAUAUAUAGUAAGGAUAUGUAUAUAUUUUAUAAACAGAAGGUACUGACAUGAGGAUCACCCAUGUUUUAGUGUGGGCAUGUAGA [JMF's solution 7] (Eterna round: R96, puzzle: Exclusion NG 1)	0.0575
AGACGGAGAAAAGGAUAUGAGACACUAGACGUCUCAGAAGGUUUAGCCAGUAGCUCCAACAUGAGGAUCACCCAUGUGGUCGUA [Eternabot solution 41] (Eterna round: R96, puzzle: Exclusion NG 1)	0.108

* * *

- Tested on: MS2 coat protein
- ASSAY INFO: apparent KD of MS2 coat protein; designed switch direction (-1 OFF switch, 1 ON switch): 1; higher = weaker reporter binding
- PARTICULARS: Eterna round: R95; input ligand: none

MONOMER SEQUENCE	UNIT ABBREVIATION	apparent KD of MS2 coat protein
AGCUAUCGAAAACGAUAGCAAAAGCAUGUACAUGAGGAUCACCCAUGUCAUGUACAAGCUUUUUGUUCGUCUUAAAA [Zipper 23 - 14] (puzzle: Sensor for hsa-mir-208a)	nM	334
AGUCCAGCCAGAGCUGGACAAAAGCAUGUACAUGAGGAUCACCCAUGUUCAUGUACAAGCUUUUUGCAAGUCAAAAU [Mat - hsa-mir-208a - Mod of JL - 83] (puzzle: Sensor for hsa-mir-208a)	nM	1110
UUUAGUUGCGGGCAGGAUAUGUAUUAAAAUACAUGAGGAUCACCCAUGUGCGGGUAUAACACCCGACAGAAGGGCCAAUCGCAAC [Laonerce - 6] (puzzle: Same State 2)	nM	240

From: the supplement of paper PMC9170038
